The measurements presented in this section are drawn from patent US11434242B2.

Overview of reported Plasma (0.01 μM), activity in % of control across a group of compounds:
Target: Dopamine beta hydroxylase (Homo sapiens, UniProt P09172)
Construct: 125 μl of plasma; tissue Instituto Português do Sangue Transplantação; host or cells: human plasma from healthy donors
Sequence (P09172 40-617 limits assumed): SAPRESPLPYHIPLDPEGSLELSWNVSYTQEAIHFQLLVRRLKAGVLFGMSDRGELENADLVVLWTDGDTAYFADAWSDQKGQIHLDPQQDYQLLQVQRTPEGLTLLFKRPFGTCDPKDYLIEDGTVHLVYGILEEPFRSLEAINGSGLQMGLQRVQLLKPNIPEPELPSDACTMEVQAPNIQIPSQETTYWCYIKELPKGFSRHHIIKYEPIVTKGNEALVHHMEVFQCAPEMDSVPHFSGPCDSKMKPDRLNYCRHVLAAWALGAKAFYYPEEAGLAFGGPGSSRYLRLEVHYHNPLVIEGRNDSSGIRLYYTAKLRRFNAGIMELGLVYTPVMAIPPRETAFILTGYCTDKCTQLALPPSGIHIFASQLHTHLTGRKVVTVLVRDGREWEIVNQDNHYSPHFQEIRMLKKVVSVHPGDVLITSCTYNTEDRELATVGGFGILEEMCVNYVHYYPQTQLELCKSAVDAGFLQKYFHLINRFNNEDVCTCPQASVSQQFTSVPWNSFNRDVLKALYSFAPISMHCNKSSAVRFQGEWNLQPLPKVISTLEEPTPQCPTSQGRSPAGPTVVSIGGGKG
Assay: Dopamine beta hydroxylase activity in human plasma
Type: biochemical
Conditions: inhibitor 0.01 μM
readout_kind: Plasma (0.01 μM), activity in % of control

1. CN(C(=O)Cc1c2n(c(=S)n1C)C[C@@]1(c3cc(Br)ccc3F)C[C@@H]21)C1CCOCC1
67.2 % of control
2. O=C(Cc1[nH]c(=S)n2c1C[C@@H](c1c(F)ccc(Br)c1F)C2)N1CCSCC1
72.9 % of control
3. CC1CCN(C(=O)CCc2[nH]c(=S)n3c2C[C@H](c2c(F)c(F)cc(F)c2F)C3)CC1
62.0 % of control
4. Cn1c(CC(=O)NC2CCOCC2)c2n(c1=S)C[C@@]1(c3cc(Br)ccc3F)C[C@@H]21
80.2 % of control
5. Cn1c(CC(=O)N[C@H]2CCOC2)c2n(c1=S)C[C@H](c1c(F)ccc(Cl)c1F)C2
68.1 % of control
6. O=C(Cc1[nH]c(=S)n2c1[C@@H]1C[C@]1(c1cc(Br)ccc1F)C2)NC1CC1
89.5 % of control
7. Cn1c(CC(=O)NC2CCOCC2)c2n(c1=S)C[C@H](c1c(F)ccc(Cl)c1F)C2
45.4 % of control
8. CC(C)NC(=O)Cc1[nH]c(=S)n2c1C[C@H](c1c(F)ccc(Br)c1F)C2
95.9 % of control
9. CN(C(=O)Cc1c2n(c(=S)n1C)C[C@H](c1c(F)ccc(Cl)c1F)C2)[C@@H]1CCOC1
40.6 % of control
10. O=C(Cc1[nH]c(=S)n2c1C[C@H](c1c(F)ccc(Br)c1F)C2)N[C@@H]1CCCC[C@H]1O
84.7 % of control
11. CN(C(=O)Cc1c2n(c(=S)n1C)C[C@@]1(c3c(F)ccc(Cl)c3F)C[C@@H]21)C1CCOCC1
59.2 % of control
12. Cl.Cn1c(CCNC2CCCCC2)c2n(c1=S)C[C@@]1(c3cc(Br)ccc3F)C[C@@H]21
91.1 % of control
13. O=C(Cc1[nH]c(=S)n2c1C[C@@H](c1c(F)ccc(Cl)c1F)C2)N[C@H]1CCOC1
78.7 % of control
14. OCCc1[nH]c(=S)n2c1C[C@H](c1c(F)ccc(Br)c1F)C2
94.2 % of control
15. Cn1c(CC(=O)N[C@H]2CCOC2)c2n(c1=S)C[C@H](c1c(F)ccc(Br)c1F)C2
65.6 % of control
16. O=C(CCc1[nH]c(=S)n2c1C[C@H](c1c(F)c(F)cc(F)c1F)C2)NCC1CC1
95.8 % of control
17. Cn1c(CC(=O)N[C@H]2CCOC2)c2n(c1=S)C[C@H](c1c(F)ccc(F)c1F)C2
87.7 % of control
18. O=C(Cc1[nH]c(=S)n2c1C[C@@H](c1c(F)ccc(Br)c1F)C2)N1CCS(=O)(=O)CC1
44.3 % of control
19. CN(CCc1[nH]c(=S)n2c1C[C@@H](c1c(F)ccc(Cl)c1F)C2)C(=O)N1CCCC1
86.8 % of control
20. Cn1c(CC(=O)N[C@@H]2CCOC2)c2n(c1=S)C[C@H](c1cc(Cl)ccc1F)C2
80.0 % of control
21. Fc1ccc(Cl)cc1[C@]12C[C@H]1c1c(CCNc3cccnc3)[nH]c(=S)n1C2
75.9 % of control
22. CNCCc1[nH]c(=S)n2c1C[C@@H](c1c(F)ccc(Cl)c1F)C2.Cl
86.0 % of control
23. CN(C(=O)Cc1c2n(c(=S)n1C)C[C@@H](c1c(F)c(F)cc(F)c1F)C2)C1CCOC1 (stereo partly shown)
90.0 % of control
24. F.Fc1ccc(Br)cc1[C@]12C[C@H]1c1c(CCNC3CCC3)[nH]c(=S)n1C2
60.9 % of control
25. Fc1cc(F)c(F)c([C@H]2Cc3c(CCc4ccccn4)[nH]c(=S)n3C2)c1F
105.9 % of control
26. Cn1cc(CNC(=O)Cc2c3n(c(=S)n2C)C[C@H](c2c(F)ccc(Cl)c2F)C3)cn1
36.4 % of control
27. Cn1c(CC(=O)NCc2cnccn2)c2n(c1=S)C[C@H](c1c(F)ccc(Cl)c1F)C2
63.1 % of control
28. Cn1c(CCC(=O)NCC#N)c2n(c1=S)C[C@@H](c1c(F)ccc(F)c1F)C2
88.1 % of control
29. CN(C(=O)Cc1c2n(c(=S)n1C)C[C@H](c1c(F)ccc(Cl)c1F)C2)C1CCOCC1
66.1 % of control
30. O=C(Cc1[nH]c(=S)n2c1[C@@H]1C[C@]1(c1cc(Br)ccc1F)C2)NC1CCC1
85.5 % of control
31. O=C(CCc1[nH]c(=S)n2c1C[C@H](c1c(F)c(F)cc(F)c1F)C2)N1CCCCC1
76.6 % of control
